System: MDCK
Test: Permeability from apical to basal side of MDCK cells expressing human mdr1 gene
Format: ADME, cell-based, Canis lupus familiaris
Details: dog
Quantity Name: permeability

What measured permeability goes with Cc1c(C(=O)N2CCC(C(N)=O)(c3ccccc3)CC2)nn(-c2ccc(Cl)cc2Cl)c1-c1ccc(Cl)cc1 ?
8%

Same thing, different compound: CCOC(=O)N1CCC(NC(=O)c2nn(-c3ccc(Cl)cc3Cl)c(-c3ccc(Cl)cc3)c2C)CC1
< 1%

Same thing, different compound: CCNC1(C(N)=O)CCN(c2ncnc3c2nc(-c2ccccc2Cl)n3-c2ccc(Cl)cc2)CC1 [OTENABANT]
90%

Same thing, different compound: Cc1c(C(=O)N2CCC(NC(=O)OC(C)(C)C)(c3ccccc3)CC2)nn(-c2ccc(Cl)cc2Cl)c1-c1ccc(Cl)cc1
< 1%

Same thing, different compound: Cc1c(C(=O)NC2CCN(C(=O)NC(C)(C)C)CC2)nn(-c2ccc(Cl)cc2Cl)c1-c1ccc(Cl)cc1
< 1%

Same thing, different compound: Cc1c(C(=O)N2CCC(NC(=O)NC(C)(C)C)(c3ccccc3)CC2)nn(-c2ccc(Cl)cc2Cl)c1-c1ccc(Cl)cc1
< 1%

Same thing, different compound: Cc1c(C(=O)N[C@@H]2CCCN(S(C)(=O)=O)C2)nn(-c2ccc(Cl)cc2Cl)c1-c1ccc(Cl)cc1
< 1%

Same thing, different compound: Cc1c(C(=O)NC2CCN(C(=O)OC(C)(C)C)CC2)nn(-c2ccc(Cl)cc2Cl)c1-c1ccc(Cl)cc1
< 1%

Same thing, different compound: Cc1c(C(=O)NC2CCN(C(=O)NC(C)C)CC2)nn(-c2ccc(Cl)cc2Cl)c1-c1ccc(Cl)cc1
14%

Same thing, different compound: CCOC(=O)N1CCC[C@H](NC(=O)c2nn(-c3ccc(Cl)cc3Cl)c(-c3ccc(Cl)cc3)c2C)C1
< 1%
